experiment: chemical genetic growth profiling, strain panel (AID 1159580);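 further: tested at 20 µM; growth read once vehicle control cultures reached saturation at 30 °C; 1 = growth at the plate median or of vehicle wells; lower values mean less growth of the strain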; conditions: S. cerevisiae deletion strains, growth OD, locus YPR163C, strain tif3, active compounds read low
In all, about 5,500 compounds went through this assay and about 2,000 (36%) were called active. About 18% were inconclusive and are not listed. The list shows a part of the results.
Parameter: normalized growth. Scope: all listed entries.

CC(=O)O[C@H]1C[C@@]2(C)[C@@H](C[C@@H](O)C3[C@]2(C)CC[C@H]2[C@H](C)[C@H](O)CC[C@]32C)/C1=C(/CCC=C(C)C)C(=O)O (stereo partly drawn) : 1.04 (inactive)
OC[C@H]1O[C@@H](n2cnc3c(NCc4ccco4)ncnc32)[C@H](O)[C@@H]1O : 1 (inactive)
O=c1[nH]c(=O)n(C2C[C@H](O)[C@@H](CO)O2)cc1C(F)(F)F (stereo partly drawn) : 0.972 (inactive)
FC(F)(F)c1cccc(N2CCNCC2)c1 : 0.989 (inactive)
CCCNC(=O)NS(=O)(=O)c1ccc(Cl)cc1 : 1 (inactive)

So what's the measured normalized growth for this one? Cc1oncc1C(=O)Nc1ccc(C(F)(F)F)cc1 0.991 (inactive)

And O=C(O)C1CCCNC1 (stereo not drawn) ? 1.03 (inactive)

Entry to check: Cc1cccc(C)c1NC(=O)C1CCCCN1C (stereo not drawn) 1.02 (inactive)

* * *

assay: chemical genetic growth profiling, strain panel (AID 1159580); conditions: S. cerevisiae deletion strains, growth OD, locus YDL132W, strain cdc53, active compounds read low
Screen size: about 5,500 compounds; about 2,000 (36%) were called active. Another 18% or so got no clear call; they are omitted. The list shows a part of the results.
Value Kind: normalized growth
Answer with a bare number; do not write a unit.

# input compound: CC1=CC(=O)N(c2ccc(OC(F)(F)F)cc2)C1=O ; wanted: its normalized growth 0.847

Another compound: Cn1nccc1-c1cc(Cl)cc(Cl)c1O 0.966

# repeat for N/C(=N/O)c1ccc(Oc2ccc(C3SCCS3)cc2)c([N+](=O)[O-])c1 0.973

Moving on to the next compound: Cc1ccc(S(=O)(=O)Nc2nc(-c3ccc(C)c(Cl)c3)c(C)s2)cc1 0.983

Another compound to look at: FC(F)(F)c1cc(NC(=S)SCCSC(=S)Nc2cc(C(F)(F)F)cc(C(F)(F)F)c2)cc(C(F)(F)F)c1 0.988

Moving on to Cc1ccccc1/C=C/c1c[nH]c2ccccc12 0.942

Note, next up: O=S(=O)(Nc1csc(C(F)(F)F)c1-c1ccccc1)c1cc(Br)c(Br)s1 0.971

Follow-up item: Cc1ccc(-c2nc(NS(=O)(=O)c3cccc4nonc34)sc2C)cc1Cl 0.964

What do you get for O=S(=O)(NCc1ccc(C(F)(F)F)cc1)c1cc(Br)c(Br)s1 ? 0.973

Repeat with Clc1ccccc1-c1csc(-c2cccnc2)n1 0.932

And what about the compound Clc1ccccc1-c1csc(-c2ccncc2)n1 ? 0.966

* * *

experiment: chemical genetic growth profiling, strain panel (AID 1159580); conditions: S. cerevisiae deletion strains, growth OD, locus YNR052C, strain pop2, active compounds read low
Among all 5,500 compounds or so, about 2,000 (36%) were called active. Roughly 18% stayed inconclusive and do not appear here. Some of the results follow.
In this section we review reported normalized growth values for a set of compounds.
Answer field: number only, no words.

Record excerpt, results attached:
NC1(C(=O)O)CC1 : 1.01
CC1[C@H](C)OC(=O)CC(O)CC(O)CC(O)CCC(O)C(O)C[C@]2(O)CC(O)C(C(=O)O)C(CC(OC3O[C@H](C)[C@@H](O)[C@H](N)[C@@H]3O)/C=C/C=C/C=C/C=C/CC/C=C/C=C/[C@H](C)[C@H]1O)O2 (stereo partly specified) : 0.0638
CN[C@@H]1C(OC2[C@H](O[C@H]3[C@H](O)[C@@H](O)[C@H](N=C(N)N)[C@@H](O)[C@@H]3N=C(N)N)OC(C)[C@]2(O)CO)OC(CO)C(O)C1O (stereo partly specified) : 0.972
Cc1nnc(NS(=O)(=O)c2ccc(N)cc2)s1 : 0.989
NC1(C(=O)O)CCCC1 : 1.01
CC(C)/C(O)=C1/C(=O)O[C@@H](c2ccoc2)[C@]2(C)C(O)[C@@H](O)[C@@]34OC5(C)OC67CC(C)(C(O)[C@]6(O)[C@@H](O)[C@]3(O5)C12)[C@H](CC(=O)O)[C@]74C (stereo partly specified) : 1.02

Which normalized growth value belongs to CC1OC(O[C@H]2/C=C/C=C/C=C/C=C/C=C/C=C/C=C/[C@H](C)[C@@H](O)[C@@H](C)[C@H](C)OC(=O)CC(O)CC(O)CCC(O)C(O)CC(O)C[C@]3(O)C[C@H](O)C(C(=O)O)C(C2)O3)C(O)[C@H](N)C1O (stereo partly specified) ? 0.983

CC(C)c1nc(N(C)S(C)(=O)=O)nc(-c2ccc(F)cc2)c1/C=C/[C@@H](O)C[C@@H](O)CC(=O)O , same question. 0.929

// same read-out, input: NC(C(=O)O)C(O)C(=O)O (stereo unspecified) 1.04

Again, but for NC1(C(=O)O)CCC1 0.999

Another compound to check: CN(C)C(=O)Oc1ccc[n+](C)c1 1.02

* * *

test: chemical genetic growth profiling, strain panel (AID 1159580);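 further: tested at 20 µM; growth read once vehicle control cultures reached saturation at 30 °C; 1 = growth at the plate median or of vehicle wells; lower values mean less growth of the strain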; conditions: S. cerevisiae deletion strains, growth OD, locus YOR001W, strain rrp6, active compounds read low
Hit rate of the full screen: of about 5,500 compounds, about 2,000 (36%) were called active. Roughly 18% stayed inconclusive and do not appear here. The list shows a part of the results.
Value Kind: normalized growth
Give the value as a plain number.

Which measured normalized growth value corresponds to CC(=O)O[C@@H]1CC2C(C)(C)[C@H](O)C=C[C@]2(C)C2CC[C@@]3(C)[C@H](c4ccoc4)OC(=O)C4OC43[C@@]21C (stereo partly drawn) ? 1.01

Request: C[C@@H]1CC2C3CCC4=CC(=O)C=C[C@]4(C)[C@@]3(F)[C@@H](O)C[C@]2(C)[C@@]1(O)C(=O)CO (stereo partly drawn) 0.976

Same for CC(=O)O[C@@H]1CC2C(C)(C)[C@@H](O)CC[C@]2(C)C2CC[C@@]3(C)[C@H](c4ccoc4)OC(=O)[C@H]4O[C@]43[C@@]21C (stereo partly drawn) 0.981

* * *

test: chemical genetic growth profiling, strain panel (AID 1159580);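 further: tested at 20 µM; growth read once vehicle control cultures reached saturation at 30 °C; 1 = growth at the plate median or of vehicle wells; lower values mean less growth of the strain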; conditions: S. cerevisiae deletion strains, growth OD, locus YJR043C, strain POL32, active compounds read low
In all, about 5,500 compounds went through this assay and about 2,000 (36%) were called active. About 18% were inconclusive and are not listed. Some of the results follow.
Value Kind: normalized growth
Give the figure by itself; no unit, no explanation.

Solved cases below.
COP(=S)(OC)Oc1ccc([N+](=O)[O-])cc1 : 0.983
NC(=O)N[C@@H]1O[C@H](CO)[C@@H](O)[C@H](O)[C@H]1O : 0.975
Cc1nnc(NS(=O)(=O)c2ccc(N)cc2)s1 : 1.03
NC1(C(=O)O)CC1 : 1.01

Need normalized growth of NCCCCNCCCN , thanks. 1

Then this compound: Cc1cc(CC(=O)O)n(C)c1C(=O)c1ccc(Cl)cc1 0.997

// query: CCCn1c(=O)c2[nH]c(C3CCCC3)nc2n(CCC)c1=O 0.989

Request: CCC(C)C(=O)c1c(O)c(C)c2oc3c(C)c(O)c(C(=O)C(C)CC)c(O)c3c2c1O (stereo not drawn) 0.936

Entry CCCCCCCCCCCCCC(=O)OC1C(C)C2(O)C(C=C(CO)CC3(O)C(=O)C(C)=CC32)C2C(C)(C)C12OC(C)=O (stereo not drawn) please 1.03

Continue with Clc1ccc(C(c2ccccc2Cl)C(Cl)Cl)cc1 (stereo not drawn) 1

// next record CC1[C@H](C)OC(=O)CC(O)CC(O)CC(O)CCC(O)C(O)C[C@]2(O)CC(O)C(C(=O)O)C(CC(OC3O[C@H](C)[C@@H](O)[C@H](N)[C@@H]3O)/C=C/C=C/C=C/C=C/CC/C=C/C=C/[C@H](C)[C@H]1O)O2 (stereo partly drawn) 0.0611

How about this compound: NC1(C(=O)O)CCC1 0.83

Also C[C@]12C=CC(=O)C=C1CCC1C2[C@@H](O)C[C@@]2(C)C1CC[C@]2(O)C(=O)CO (stereo partly drawn) , if possible. 0.998

* * *

test: chemical genetic growth profiling, strain panel (AID 1159580);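 further: tested at 20 µM; growth read once vehicle control cultures reached saturation at 30 °C; 1 = growth at the plate median or of vehicle wells; lower values mean less growth of the strain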; details: S. cerevisiae deletion strains, growth OD, locus YBR171W, strain sec66, active compounds read low
Hit rate of the full screen: of about 5,500 compounds, about 2,000 (36%) were called active. About 18% were inconclusive and are not listed. Some of the results follow.
Exam item: assign met to entries whose normalized growth is below 1 and not met to entries at or above 1. Note that a value of exactly 1 receives not met.

Take the compound N[C@@H](C(=O)O)[C@@H](O)[C@H](O)[C@H](O)CO and say whether its normalized growth is less than 1. not met

// same read-out, input: NC(N)=NCCN1CCCCCCC1 not met

Continue with COc1ccc2oc3ccccc3c(=O)c2c1 met

Likewise for COc1ccc2c(c1)OCC(Cc1ccc(OC)c(OC(C)=O)c1)C2=O (stereo not drawn) ? met

Would you mind doing C[C@H]1C[C@@H](O)[C@]2(O)[C@@]13CC(=O)OC[C@@]2(C)[C@](C)(O)C(=O)C3 as well? not met
